- target-system: Calmodulin-1 (Homo sapiens) (UniProt P0DP23)
- procedure-summary: small molecules binding calmodulin-1 with EGTA – biochemical, small-molecule microarray, Cy5-labelled CALM1, profiling panel (AID 1111);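 further: labelled calmodulin applied in Tris saline Tween buffer holding calcium plus EGTA and DTT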
- condition: Cy5-CALM1 binding fluorescence, higher = more signal
reported-metric: composite z-score
# respond with the number and nothing more

Sample answers from the record:
molecule	reported-metric	observed-value
COCCCNC(=O)[C@]1(Cc2ccccc2N=[N+]=[N-])N=C(c2ccc(OCCCO)cc2)O[C@@H]1c1ccccc1CN=[N+]=[N-]	composite z-score	1.5
CCCCCN1CC=CC23O[C@@H]4C=CCCOC(=O)C4[C@H]2C(=O)N(CCCO)[C@@H]3C1=O (stereo not given in full)	composite z-score	-0.162
O=C1C2C=CC(C(O)c3ccc(-c4ccccc4)s3)N(Nc3ccccc3F)C2C(=O)N1c1ccccc1 (stereo not given)	composite z-score	1.95

Problem: Provide only the value of recorded composite z-score for CN1C(=O)C2C=CC(C(O)C(c3ccccc3)c3ccccc3)N(Nc3ccccc3)C2C1=O (stereo not given)
Solution: 1.29

###

The entries below come with measured z-score values attached.
- procedure-summary: JC-1 mitochondrial signal, unstimulated HepG2 cells – cell-based, JC-1 fluorescence, 24 h, 100 nL compound, profiling panel (AID 1167); further: test concentration not given here
- condition: HepG2 mitochondrial potential, higher = more signal
# respond with the number and nothing more

Sample answers from the record:
molecule	z-score
O=C1NC(=O)C2C1C=CC(C(O)c1cccs1)N2Nc1ccccn1 (configuration not stated)	0.674
C=C(CCCC)C(=O)CC[C@@H](OC(=O)c1ccccc1-c1ccccc1C(=O)O)c1ccc(CO)o1	-1.24
C=CC[C@]1(C(=O)O)N=C(c2ccc(OCCCO)cc2)O[C@H]1c1ccccc1CN=[N+]=[N-]	-0.131
O=C(NCc1ccccc1)[C@@H]1c2ccccc2C(=O)N(Cc2cc(F)cc(C(F)(F)F)c2)[C@H]1c1ccc(CO)cc1	1.88
Cc1ccc(S[C@]2(C(=O)NCCN3CCOCC3)CC(=O)N(C3CCCCC3)[C@@H]2c2ccc(CO)cc2)cc1	-0.0786
C=CCOC(=O)[C@H]1[C@@H]2C(=O)O[C@@H](c3ccccc3)[C@@H](c3ccccc3)N2[C@@H](c2ccc(OCCOC(=O)[C@H]3C[C@H]4C(=O)N[C@@H](CCCC[N+](C)(C)C)C(=O)N4[C@H]3c3ccc(O)cc3)cc2)[C@]12C(=O)Nc1ccccc12	-1.12

Problem: Provide only the value of recorded z-score for O=C(N1CCCCC1)[C@]1(CCS(=O)(=O)c2ccccc2)N=C(c2ccc(OCCCO)cc2)O[C@@H]1c1ccccc1
Solution: -0.0371

###

- target-system: Luciferin 4-monooxygenase (Photinus pyralis)
- procedure-summary: inhibition of purified Photinus pyralis luciferase – biochemical, luminescence, purified enzyme, 2006 set, primary screen (AID 1141);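 further: cell-free assay with purified firefly luciferase at 100 ng per well in PBS; test concentration not given here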
- condition: purified firefly luciferase, SteadyGlo luminescence, 30 min; higher = more signal, called active from +8 up or from −8 down
Label scheme for z-score: lower than -0.7 is 0, -0.7 and above is 1.

Sample answers from the record:
compound	label-class
Cc1ccc(C(C)CC(O)C2C=CC3C(=O)NC(=O)C3N2Nc2ccccn2)o1 (configuration not stated)	0
CC(C)(C)OC(=O)CC[C@@]1(C(=O)NCC(O)CO)N=C(c2ccc(OCCCO)cc2)O[C@@H]1c1ccccc1 (some centres not stated)	0

Problem: Is reported z-score greater than or equal to -0.7 here: COc1ccc(C#Cc2ccc3c(c2)[C@]2(C(=O)N3)[C@H](c3ccc(OCCO)cc3)N3[C@H](c4ccccc4)[C@H](c4ccccc4)OC(=O)[C@H]3[C@@H]2C(=O)Nc2nc3ccccc3s2)cc1
Solution: 0

Problem: Is reported z-score greater than or equal to -0.7 here: COCCn1c(C(=O)N(C)C)cc2c1C[C@H]1CN(C(=O)c3ccccc3)[C@@](Cc3ccc(F)cc3)(C(=O)OC)[C@@H]21
Solution: 1

Problem: Is reported z-score greater than or equal to -0.7 here: COc1ccc([Si](C)(C)[C@@H]2[C@@H](CCO)O[C@]3(C(=O)N(Cc4ccc(N5C(=O)c6cccc7cccc5c67)cc4)c4ccccc43)[C@H]2C)cc1
Solution: 1

Problem: Is reported z-score greater than or equal to -0.7 here: O=C1O[C@H](c2ccccc2)[C@H](c2ccccc2)N2[C@H]1[C@@H](C(=O)N1CCCCCCC1)[C@]1(C(=O)Nc3ccc(C#CC4=CCCCC4)cc31)[C@H]2c1ccc(O)cc1
Solution: 1

Problem: Is reported z-score greater than or equal to -0.7 here: O=C(CS)NCCCCCNC(=O)[C@H]1C[C@H]2C(=O)N[C@@H](Cc3ccccc3)C(=O)N2[C@H]1c1cccc(OCCO)c1
Solution: 0
